pIC50: recorded values
Target: NaV1.5 (Homo sapiens, UniProt Q14524)
Construct: permanently transfected with an expression vector containing the full-length cDNA coding for the desired human sodium channel α-subunit; expressed in transfected cells; host or cells: HEK-293
Sequence (Q14524 whole entry): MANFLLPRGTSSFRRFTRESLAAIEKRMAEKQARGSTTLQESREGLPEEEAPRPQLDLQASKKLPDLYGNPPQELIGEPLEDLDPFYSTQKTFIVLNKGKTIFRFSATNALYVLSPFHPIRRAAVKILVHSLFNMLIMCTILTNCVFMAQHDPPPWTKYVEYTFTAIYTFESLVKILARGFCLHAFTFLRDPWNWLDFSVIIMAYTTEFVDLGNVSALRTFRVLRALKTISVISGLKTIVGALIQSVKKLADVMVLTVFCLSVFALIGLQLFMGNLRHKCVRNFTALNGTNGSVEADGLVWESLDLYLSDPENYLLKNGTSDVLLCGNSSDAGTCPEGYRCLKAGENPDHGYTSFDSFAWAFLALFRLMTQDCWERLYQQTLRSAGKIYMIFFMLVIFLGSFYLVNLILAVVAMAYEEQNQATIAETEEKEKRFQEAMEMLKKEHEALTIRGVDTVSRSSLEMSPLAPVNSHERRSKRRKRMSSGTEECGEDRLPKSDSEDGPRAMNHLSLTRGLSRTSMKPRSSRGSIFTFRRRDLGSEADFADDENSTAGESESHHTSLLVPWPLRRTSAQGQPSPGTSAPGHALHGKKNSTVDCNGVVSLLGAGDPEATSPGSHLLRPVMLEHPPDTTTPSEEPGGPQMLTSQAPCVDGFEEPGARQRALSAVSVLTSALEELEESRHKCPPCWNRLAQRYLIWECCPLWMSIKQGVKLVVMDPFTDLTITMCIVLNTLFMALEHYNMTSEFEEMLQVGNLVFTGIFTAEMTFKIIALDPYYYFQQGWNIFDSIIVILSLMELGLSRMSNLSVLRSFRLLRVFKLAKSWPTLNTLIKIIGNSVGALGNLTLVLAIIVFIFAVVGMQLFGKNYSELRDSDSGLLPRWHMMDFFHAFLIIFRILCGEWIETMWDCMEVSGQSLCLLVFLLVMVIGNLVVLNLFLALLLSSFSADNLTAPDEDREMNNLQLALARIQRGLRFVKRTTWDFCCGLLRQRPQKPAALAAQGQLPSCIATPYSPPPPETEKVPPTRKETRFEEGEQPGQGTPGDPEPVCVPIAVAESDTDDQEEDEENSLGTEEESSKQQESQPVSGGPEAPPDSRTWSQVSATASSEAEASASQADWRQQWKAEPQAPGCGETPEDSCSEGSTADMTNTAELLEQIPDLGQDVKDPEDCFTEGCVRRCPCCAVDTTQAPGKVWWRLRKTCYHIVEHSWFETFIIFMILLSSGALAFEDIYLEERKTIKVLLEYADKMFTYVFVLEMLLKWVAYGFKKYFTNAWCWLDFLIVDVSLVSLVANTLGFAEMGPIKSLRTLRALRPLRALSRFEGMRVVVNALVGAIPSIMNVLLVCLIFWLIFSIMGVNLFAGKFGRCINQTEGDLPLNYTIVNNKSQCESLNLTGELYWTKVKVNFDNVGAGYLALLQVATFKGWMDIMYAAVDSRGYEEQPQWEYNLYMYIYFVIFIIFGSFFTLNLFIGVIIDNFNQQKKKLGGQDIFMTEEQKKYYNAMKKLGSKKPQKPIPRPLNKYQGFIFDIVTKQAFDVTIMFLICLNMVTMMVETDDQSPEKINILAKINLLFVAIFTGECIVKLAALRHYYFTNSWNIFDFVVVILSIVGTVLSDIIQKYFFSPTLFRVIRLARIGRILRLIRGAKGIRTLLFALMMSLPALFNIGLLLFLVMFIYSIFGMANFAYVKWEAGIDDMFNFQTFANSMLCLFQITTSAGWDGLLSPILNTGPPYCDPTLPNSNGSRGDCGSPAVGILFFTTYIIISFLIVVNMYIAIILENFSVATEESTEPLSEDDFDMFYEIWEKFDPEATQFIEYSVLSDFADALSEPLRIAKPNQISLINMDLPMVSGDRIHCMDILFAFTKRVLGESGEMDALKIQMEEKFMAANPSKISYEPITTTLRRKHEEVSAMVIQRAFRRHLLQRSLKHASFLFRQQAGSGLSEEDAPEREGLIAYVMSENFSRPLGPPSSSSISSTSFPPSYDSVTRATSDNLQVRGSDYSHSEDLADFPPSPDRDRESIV
Assay: Patch voltage clamp electrophysiology assay (EP), NaV1.5
Type: cell-based
Conditions: HEK-293 cells stably expressing NaV1.5 with β1 subunit; whole-cell patch clamp, membrane potential −60 mV (inactivated state); read-out: Nav1.5
pIC50: −log10 of the molar value.

{"columns": ["molecule", "pIC50"],
 "data": [
  ["O=C(O)[C@@H]1CCCN1C(=O)c1cc(C2CC2)c(OC[C@@H]2CCN(C(c3ccccc3)c3ccccc3)C2)cc1F (single isomer, unassigned) [Example 139b]", 4.66],
  ["O=C(O)[C@@H]1CCCN1C(=O)c1cc(C2CC2)c(COc2cc(Cl)cc(OC(F)(F)F)c2)cc1F [Example 182]", 4.60],
  ["CC(C)[C@H](NC(=O)c1cc(C2CC2)c(COc2cc(Cl)cc(OC(F)(F)F)c2)cc1F)C(=O)O [Example 183]", 5.04],
  ["O=C(O)[C@@H]1CCCN1C(=O)c1cc(C2CC2)c(COc2cc(Cl)cc(Cl)c2)s1 [Example 134]", 5.15]
]}

###

Molecular target: NaV1.5 (Homo sapiens)
Construct: permanently transfected with an expression vector containing the full-length cDNA coding for the desired human sodium channel α-subunit; expressed in transfected cells; host or cells: HEK-293
Assay: Patch voltage clamp electrophysiology assay (EP), NaV1.5
Assay type: cell-based
Conditions: HEK-293 cells stably expressing NaV1.5 with β1 subunit; whole-cell patch clamp, membrane potential −60 mV (inactivated state); read-out: Nav1.5
Counter-ions that a name gives are not always drawn.

{"columns": ["compound", "subject-of-test", "IC50"],
 "data": [
  ["O=C(O)[C@@H]1CCCN1C(=O)c1cc(C2CC2)c(OCC2CCN(C(c3ccccc3)c3cc(Cl)cc(Cl)c3)CC2)cc1F (stereo partly shown) [Example 193, trifluoroacetate]", "NaV1.5 (Homo sapiens)", "7.6 µM"],
  ["O=C(O)C1CCN(C(=O)c2cc(C3CC3)c(OCC34CC5CC(CC(C5)C3)C4)cc2F)C1 (stereo not shown)", "NaV1.5 (Homo sapiens)", "23 µM"],
  ["CC[C@H](NC(=O)c1cc(C2CC2)c(OCC23CC4CC(CC(C4)C2)C3)cc1F)C(=O)O", "NaV1.5 (Homo sapiens)", "7.1 µM"],
  ["CC1(O)C[C@@H](C(=O)O)N(C(=O)c2cc(C3CC3)c(OCC34CC5CC(CC(C5)C3)C4)cc2F)C1 (stereo partly shown)", "NaV1.5 (Homo sapiens)", "24 µM"],
  ["C[C@H]1OCN(C(=O)c2cc(C3CC3)c(OCC3CCN(C(c4cc(Cl)cc(Cl)c4)C(F)(F)F)CC3)cc2F)[C@@H]1C(=O)O (stereo partly shown)", "NaV1.5 (Homo sapiens)", "6.1 µM"],
  ["C[C@@H]1C[C@@H](C(=O)O)N(C(=O)c2cc(C3CC3)c(OCC34CC5CC(CC(C5)C3)C4)cc2F)C1", "NaV1.5 (Homo sapiens)", "19 µM"],
  ["C[C@@H](c1cc(Cl)cc(Cl)c1)N1CCC(COc2cc(F)c(C(=O)N3CSC[C@H]3C(=O)O)cc2C2CC2)CC1", "NaV1.5 (Homo sapiens)", "17 µM"]
]}
